Source: ChEMBL document CHEMBL5137074

test: Metabolic stability in human hepatocytes assessed as intrinsic clearance measured per 10^6 cells

molecule-smiles	unit-descriptor	hepatocyte CLint
Cc1ccc(O)c(C)c1-n1c(N)c(C(N)=O)c2cc(Cl)cnc21	µL/min/1e6 cells	4.5

---

measured-on: Wee1-like protein kinase (Homo sapiens)
Sequence (P30291 whole entry): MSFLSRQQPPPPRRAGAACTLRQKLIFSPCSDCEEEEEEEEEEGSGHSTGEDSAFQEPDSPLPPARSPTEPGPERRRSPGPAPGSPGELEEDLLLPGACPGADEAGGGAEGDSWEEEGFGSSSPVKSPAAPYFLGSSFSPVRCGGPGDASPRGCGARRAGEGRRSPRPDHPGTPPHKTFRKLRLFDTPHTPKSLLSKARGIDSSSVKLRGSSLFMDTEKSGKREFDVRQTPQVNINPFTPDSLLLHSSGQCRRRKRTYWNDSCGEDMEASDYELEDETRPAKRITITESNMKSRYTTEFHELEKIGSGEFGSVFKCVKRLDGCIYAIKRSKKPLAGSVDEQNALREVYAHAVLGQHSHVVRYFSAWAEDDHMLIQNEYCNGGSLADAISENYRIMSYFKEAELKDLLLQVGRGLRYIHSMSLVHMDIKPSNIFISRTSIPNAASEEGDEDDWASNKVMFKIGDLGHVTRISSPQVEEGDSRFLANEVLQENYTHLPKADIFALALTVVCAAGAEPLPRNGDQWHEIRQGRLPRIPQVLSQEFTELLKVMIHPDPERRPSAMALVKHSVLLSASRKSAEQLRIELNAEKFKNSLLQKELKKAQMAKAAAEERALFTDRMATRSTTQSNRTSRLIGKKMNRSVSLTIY
Each entry below carries its recorded log10 IC50.
attribute-measured: log10 IC50 (log10 of the value in nM)

molecule-smiles	numeric-value
Cc1ccc(O)c(C)c1-n1c(N)c(C(N)=O)c2nc3ccccc3nc21	2.76
Cc1ccc(O)cc1-n1c(N)c(C(N)=O)c2nc3ccccc3nc21	3.57
Cc1c(O)ccc(Cl)c1-n1c(N)c(C(N)=O)c2nc3ccccc3nc21	2.36
Cc1ccc(O)c(Cl)c1-n1c(N)c(C(N)=O)c2nc3ccccc3nc21	2.97
NC(=O)c1c(N)n(-c2cccc3[nH]ncc23)c2nc3ccccc3nc12	3.72

---

measured-on: Membrane-associated tyrosine- and threonine-specific cdc2-inhibitory kinase (Homo sapiens)
Sequence (Q99640 whole entry): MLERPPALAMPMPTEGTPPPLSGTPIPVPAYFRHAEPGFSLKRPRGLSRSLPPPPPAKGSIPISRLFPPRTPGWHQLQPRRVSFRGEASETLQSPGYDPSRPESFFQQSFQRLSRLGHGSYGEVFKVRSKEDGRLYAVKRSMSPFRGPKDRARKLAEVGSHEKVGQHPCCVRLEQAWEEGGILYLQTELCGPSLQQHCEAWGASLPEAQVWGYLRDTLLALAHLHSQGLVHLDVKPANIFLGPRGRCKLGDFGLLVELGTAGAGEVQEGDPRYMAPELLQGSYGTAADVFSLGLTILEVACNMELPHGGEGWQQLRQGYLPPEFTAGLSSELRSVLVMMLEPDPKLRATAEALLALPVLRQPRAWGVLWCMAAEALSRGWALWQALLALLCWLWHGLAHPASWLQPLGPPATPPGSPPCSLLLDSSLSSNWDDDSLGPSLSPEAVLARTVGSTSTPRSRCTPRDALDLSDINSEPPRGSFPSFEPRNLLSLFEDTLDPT

molecule-smiles	IC50
NC(=O)c1c(N)n(-c2cccc3[nH]cnc23)c2nc3ccccc3nc12	> 20 µM
Cc1ccc(Cl)c(C)c1-n1c(N)c(C(N)=O)c2nc3ccccc3nc21	> 20 µM
NC(=O)c1c(N)n(-c2cccc3[nH]nnc23)c2nc3ccccc3nc12	> 20 µM
Cc1ccc(O)c(C)c1-n1c(N)c(C(N)=O)c2nc3cccc(-c4ccnn4C)c3nc21	< 0.003 µM
Cc1ccc(C(F)F)cc1-n1c(N)c(C(N)=O)c2nc3ccccc3nc21	> 20 µM
NC(=O)c1c(N)n(-c2cccc3[nH]ccc23)c2nc3ccccc3nc12	> 20 µM
Cc1ccc(O)c(C)c1-n1c(N)c(C(N)=O)c2nc3cccc(Br)c3nc21	< 0.003 µM
Cc1ccc(O)c(C)c1-n1c(N)c(C(N)=O)c2nc3cccc(C4=CCCC4)c3nc21	< 0.003 µM
Cc1ccc(N)cc1-n1c(N)c(C(N)=O)c2nc3ccccc3nc21	> 20 µM
Cc1ccc(O)c(C)c1-n1c(N)c(C(N)=O)c2nc3cc(Br)ccc3nc21	< 0.003 µM
Cc1ccccc1-n1c(N)c(C(N)=O)c2nc3ccccc3nc21	> 20 µM

---

Each entry below carries its recorded pIC50.
measured-on: Cytochrome P450 3A4 (Homo sapiens)
Sequence (P08684 whole entry): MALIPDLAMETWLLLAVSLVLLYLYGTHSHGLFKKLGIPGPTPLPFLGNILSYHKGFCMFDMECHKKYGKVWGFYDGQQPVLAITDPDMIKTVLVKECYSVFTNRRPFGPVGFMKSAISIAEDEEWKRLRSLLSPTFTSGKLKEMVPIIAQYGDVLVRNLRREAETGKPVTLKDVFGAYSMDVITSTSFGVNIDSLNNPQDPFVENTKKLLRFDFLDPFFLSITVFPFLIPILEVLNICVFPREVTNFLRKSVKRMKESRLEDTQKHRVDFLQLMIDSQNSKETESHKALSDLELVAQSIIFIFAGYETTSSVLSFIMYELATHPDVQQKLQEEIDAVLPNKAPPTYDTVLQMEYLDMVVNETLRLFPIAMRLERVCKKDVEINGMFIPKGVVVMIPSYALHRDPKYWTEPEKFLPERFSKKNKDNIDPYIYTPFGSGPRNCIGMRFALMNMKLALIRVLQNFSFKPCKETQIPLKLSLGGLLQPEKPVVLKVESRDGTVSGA
test: Inhibition of CYP3A4 (unknown origin)
pIC50: −log10 of the molar value.

molecule-smiles	measured-on	pIC50
Cc1ccc(O)c(C)c1-n1c(N)c(C(N)=O)c2cc(Cl)cnc21	Cytochrome P450 3A4 (Homo sapiens)	< 4.52
Cc1ccc(O)c(C)c1-n1c(N)c(C(N)=O)c2nccnc21	Cytochrome P450 3A4 (Homo sapiens)	< 4.52
Cc1ccc(O)c(C)c1-n1c(N)c(C(N)=O)c2nc(N3CCOCC3)cnc21	Cytochrome P450 3A4 (Homo sapiens)	< 4.52
